# System name: A*2902 (Homo sapiens, UniProt P04439, A270S/D101N/D185E/E176V/E277Q/E87Q/F33T/G231S/H175R/I121M/I218V/I322F/K168Q/L300P/L318F/M331R/P208A/P217A/Q86L/T323A/T345S/V100A/V358M)
# Experiment notes: biochemical
# Type: binding
No end group written: not given here.
Measured quantity: log10(IC50) (log10 of the value in nM)
Friendly reminder: values = log10 of IC50, unit nM.

Use the examples below as a reference point.
{"Sequence string": "SSDPSQKTY [Peptide 9012.0139]", "Measured quantity": "log10(IC50)", "Reading": 3.99}
{"Sequence string": "LTHFLLLKY [Peptide 9012.0134]", "Measured quantity": "log10(IC50)", "Reading": 0.11}

Given item VTGPGPGY [Peptide 83.0098] , the value recorded as its log10(IC50) is 3.28

Given item LTQENYLEY [Peptide 9012.0133] , the value recorded as its log10(IC50) is 1.34

====

Reported IC50 by item:
# System name: DRB1*1201 (Homo sapiens, UniProt P01903+P01911, A100R/A169T/D57E/D86V/F55L/H45Y/K41T/L162R/M171V/P40S/Q125H/Q178H/Q39Y/Q99D/R42G/S66L/T262R/V114A/V67L/W38E/Y59H/Y61H/Y89S)
# Experiment notes: biochemical

Given item CSCC[C@H](NC(=O)[C@H](Cc1ccc(O)cc1)NC(=O)[C@H](Cc1ccc(O)cc1)NC(=O)[C@@H](NC(=O)[C@@H](N)CO)C(C)C)C(=O)N[C@H](C(=O)N[C@@H](CC(=O)O)C(=O)N[C@@H](C)C(=O)NCC(=O)N[C@H](C(=O)N[C@@H](Cc1c[nH]c2ccccc12)C(=O)N[C@@H](CC(=O)O)C(=O)N[C@@H](CCCCN)C(=O)N[C@H](C(=O)N[C@@H](C)C(=O)O)[C@@H](C)O)[C@@H](C)O)[C@@H](C)O [Peptide 90.0182] , the value recorded as its IC50 is 0.708 µM

Given item CC[C@H](C)[C@H](NC(=O)[C@@H]1CCCN1C(=O)[C@H](CCC(N)=O)NC(=O)[C@@H](N)Cc1c[nH]c2ccccc12)C(=O)N1CCC[C@H]1C(=O)N[C@H](C(=O)N[C@@H](Cc1c[nH]cn1)C(=O)N[C@H](C(=O)N[C@H](C(=O)N1CCC[C@H]1C(=O)N[C@@H](CC(C)C)C(=O)N[C@@H](CO)C(=O)N[C@@H](CCC(=O)O)C(=O)N[C@@H](CC(=O)O)C(=O)N[C@@H](CCC(N)=O)C(=O)O)C(C)C)[C@@H](C)O)C(C)C [Peptide 68.0039] , the value recorded as its IC50 is > 20 µM

Given item CC[C@H](C)[C@H](NC(=O)[C@H](CCC(=O)O)NC(=O)[C@H](CC(N)=O)NC(=O)CNC(=O)[C@H](CC(=O)O)NC(=O)[C@H](CCC(=O)O)NC(=O)[C@H](CC(N)=O)NC(=O)[C@@H](NC(=O)[C@@H](NC(=O)[C@H](CO)NC(=O)[C@@H](NC(=O)[C@@H](N)Cc1ccc(O)cc1)[C@@H](C)CC)[C@@H](C)CC)[C@@H](C)CC)C(=O)N[C@@H](Cc1ccccc1)C(=O)N[C@@H](CC(N)=O)C(=O)N[C@H](C(=O)O)[C@@H](C)O [Peptide 68.0165] , the value recorded as its IC50 is > 20 µM
